# measured_target: acetylcholine receptor
# method: SPR, receptor on CM5 chip, peptide 10 µM
readout_kind: Binding affinity (RU)

{"columns": ["binder", "Binding affinity (RU)"],
 "data": [
  ["RRSITR [6mer-1-504]", 122],
  ["RRWYRR [6mer-1-485]", 126],
  ["KRGVRK [6mer-1-96]", 125],
  ["KKSISK [6mer-1-105]", 141],
  ["RRSLCK [6mer-1-529]", 139],
  ["KRGVQK [6mer-1-113]", 148],
  ["RRQFSK [6mer-1-508]", 135],
  ["RKWISK [6mer-1-100]", 146],
  ["RRGLSR [6mer-1-515]", 139],
  ["KRQLLK [6mer-1-110]", 121],
  ["KRQVRK [6mer-1-486]", 151],
  ["KRVQQK [6mer-1-124]", 137],
  ["KRRYTK [6mer-1-121]", 148],
  ["RKQFYR [6mer-1-128]", 126],
  ["KRVIYR [6mer-1-127]", 147],
  ["RRQVYR [6mer-1-132]", 153],
  ["KRWLYR [6mer-1-101]", 142]
]}
